Reference for the values: patent US20240246946A1

Please provide measured pIC50 for the entries that follow.
- tested_system: full length mouse TREX1 (Mus musculus)
- Construct: N-terminally His-Tev tagged full length mouse TREX1; made in house; host or cells: E. coli
- Sequence (Q91XB0 whole entry): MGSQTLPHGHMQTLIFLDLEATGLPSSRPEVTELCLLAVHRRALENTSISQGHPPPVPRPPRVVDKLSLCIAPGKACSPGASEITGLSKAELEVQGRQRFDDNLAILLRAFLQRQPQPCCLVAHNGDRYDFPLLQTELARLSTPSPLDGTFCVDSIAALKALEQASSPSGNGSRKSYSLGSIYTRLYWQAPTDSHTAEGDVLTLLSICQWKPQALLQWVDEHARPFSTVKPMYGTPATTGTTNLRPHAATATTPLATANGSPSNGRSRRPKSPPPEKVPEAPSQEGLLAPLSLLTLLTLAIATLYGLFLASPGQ
- protocol_notes: mTREX1 Biochemical Assay (fluorescence, dsDNA substrate degradation)
- condition_notes: biochemical, read-out: mTREX1 IC50
pIC50: −log10 of the molar value.

Tell me the measured pIC50 of COCCn1nc(C)c(C(c2cc(F)ccc2C#N)C(C)c2nc(C(=O)Nc3cnoc3)c(O)c(=O)n2C)c1C (single isomer, unassigned) [Example 110 D1E1] , please.
8.00 to 9.00

Cc1ncc(C(c2ccccc2C#N)C(C)c2nc(C(=O)Nc3cnoc3)c(O)c(=O)n2C)nc1C (single isomer, unassigned) [Example 81 D2E2] ?
< 8.00

CC(c1nc(C(=O)Nc2cnoc2)c(O)c(=O)n1C)C(c1ccccc1)c1cccnc1C#N (single isomer, unassigned) [Example 155 D1E1] ?
< 8.00

CCn1cc(C(c2ccccc2C#N)C(C)c2nc(C(=O)Nc3cnoc3)c(O)c(=O)n2C)c(C)n1 (single isomer, unassigned) [Example 70 D1E2] ?
< 8.00

Cc1nc(C)c(C(c2ccccc2C#N)C(C)c2nc(C(=O)Nc3cnoc3)c(O)c(=O)n2C)nc1C (single isomer, unassigned) [Example 122 D1E1] ?
> 9.00

Cc1cnc(C(c2ccccc2C#N)C(C)c2nc(C(=O)Nc3cnoc3)c(O)c(=O)n2C)c(C)n1 (single isomer, unassigned) [Example 123 D2E2] ?
< 8.00
